System: HEK-293T
run.description: Incucyte cell viability with HEK293T; further: unitless GR value; below 1 slowed growth and below 0 cell loss
Assay type: toxicity, cell-based
applied.conditions: human, 24 h, 10 µM, compound concentration 10 uM, replicate number 1
# Lookup of reported Growth Rate keyed by entry

- compound: "Nc1nc2cc(CC[C@H]3C[C@@H](n4ccc5c(N)ncnc54)[C@H](O)[C@@H]3O)ccc2cc1Br [ONAMETOSTAT]"
  quantity: "Growth Rate"
  experimental.value: -0.14

(Q) Report Growth Rate on HEK-293T for this entry: C[C@]12O[C@H](C[C@]1(O)CO)n1c3ccccc3c3c4c(c5c6ccccc6n2c5c31)CNC4=O [LESTAURTINIB]
(A) 0.16

(Q) Report Growth Rate on HEK-293T for this entry: O=C(NO)c1ccc(CN2CCCc3cc(Cl)ccc32)cc1
(A) 0.69
